Kindly supply the reported pIC50 values for the records listed here.
- Test system: ALK
- Assay Remarks: In vitro transcription-translation (IVTT) reporter assay, ALK test sequence
- Type: biochemical
- Assay Conditions: HeLa S3 lysate, sfGFP/mCherry ratio, 2 hrs at 30° C.
pIC50: −log10 of the molar value.

Value of pIC50 reported for the compound COc1ccc(C[C@H]2NC[C@H](O)[C@H]2OC(=O)Cc2cccs2)cc1 [V187050] is > 5.00

Value of pIC50 reported for the compound COc1ccc(C[C@H]2NC[C@H](O)[C@H]2OC(=O)Cc2ccc(CC(C)C)cc2)cc1 [V187182] is 4.70 to 5.00

Value of pIC50 reported for the compound COc1ccc(C[C@H]2NC[C@H](O)[C@H]2OC(=O)CC[C@H]2CN(C)CCN2C)cc1 [V186854, trifluoroacetic acid] is < 4.52

Value of pIC50 reported for the compound COCCC(=O)OC1[C@@H](O)CN[C@@H]1Cc1ccc(OC)cc1 (some centres unmarked) [V187168] is > 5.00

Value of pIC50 reported for the compound COc1ccc(C[C@H]2NC[C@H](O)[C@H]2OC(=O)C2CC3(C2)CC(N(C)C)C3)cc1 (some centres unmarked) [V187066] is 4.70 to 5.00

Value of pIC50 reported for the compound COc1ccc(C[C@H]2NC[C@H](O)[C@H]2OC(=O)CN)cc1 [V186760] is > 5.00

Value of pIC50 reported for the compound COc1ccc(C[C@H]2NC[C@H](O)[C@H]2OC(=O)CCN2CC(=O)NCC2=O)cc1 [V186849] is > 5.00

Value of pIC50 reported for the compound COc1ccc(C[C@H]2NC[C@H](O)[C@H]2OC(=O)Cc2nnc(N)s2)cc1 [V187048] is > 5.00

Value of pIC50 reported for the compound COc1ccc(C[C@H]2NC[C@H](O)[C@H]2OC(=O)C2CN(Cc3ccccc3)C2)cc1 [V000173] is < 4.52

Value of pIC50 reported for the compound COc1ccc(C[C@H]2NC[C@H](O)[C@H]2OC(=O)CCc2ccccc2)cc1 [V187069] is > 5.00

Value of pIC50 reported for the compound COc1ccc(C[C@H]2NC[C@H](O)[C@H]2OC(=O)C2CCOCC2)cc1 [V186763] is < 4.52

Value of pIC50 reported for the compound COc1ccc(C[C@H]2NC[C@H](O)[C@H]2OC(=O)Cc2cc3ccccc3s2)cc1 [V187053] is > 5.00

Value of pIC50 reported for the compound COc1ccc(C[C@H]2NC[C@H](O)[C@H]2OC(=O)C2COC2)cc1 [V0106] is > 5.00

Value of pIC50 reported for the compound COc1ccc(C[C@H]2NC[C@H](O)[C@H]2OC(=O)C2CC(F)C2)cc1 (some centres unmarked) [V187166, trifluoroacetic acid] is > 5.00

Value of pIC50 reported for the compound COc1ccc(C[C@H]2NC[C@H](O)[C@H]2OC(=O)Cn2cnnc2)cc1 [V187181] is > 5.00

Value of pIC50 reported for the compound COc1ccc(C[C@H]2NC[C@H](O)[C@H]2OC(=O)COCc2nnc(C)s2)cc1 [V187720] is > 5.00

Value of pIC50 reported for the compound COc1ccc(C[C@H]2NC[C@H](O)[C@H]2OC(=O)Cc2ccc(N3CCOCC3)cc2)cc1 [V187134] is > 5.00

The reported measurements were obtained from patent US20250091989A1.
